Recorded MFC100, one value per entry.
Test system: Cryptococcus neoformans
Assay: Fungicidal activity against wild type Cryptococcus neoformans H99 assessed as minimum concentration required to kill fungus measured after 24 hrs by time-kill assay
Type: functional
observable: MFC100 (µg/mL)

{"molecule": "O=C(N/N=C/c1c(O)ccc2ccccc12)c1ccc(C(F)(F)F)s1", "result-number": 0.25}
{"molecule": "O=C(N/N=C/c1ccc(Br)cc1O)c1ccc(C(F)(F)F)s1", "result-number": 0.5}
{"molecule": "O=C(N/N=C/c1cc(Br)ccc1O)c1ccc(Br)o1", "result-number": 0.25}
{"molecule": "O=C(N/N=C/c1ccc(Br)cc1O)c1cc(Br)c(Br)s1", "result-number": 0.5}
{"molecule": "O=C(N/N=C/c1cc(Br)ccc1O)c1ccc(C(F)(F)F)s1", "result-number": 0.25}
{"molecule": "O=C(N/N=C/c1ccc(Br)cc1O)c1ccc(Br)o1", "result-number": 0.5}
{"molecule": "O=C(N/N=C/c1cc(Br)ccc1O)c1cc(Br)c(Br)s1", "result-number": 0.25}
{"molecule": "O=C(N/N=C/c1ccc(Br)cc1O)c1csc(Br)c1", "result-number": 0.5}
